- target-under-test: human mGluR5d (Homo sapiens, UniProt P41594)
- Construct: expressed in transfected cells
- Sequence (P41594 21-942 isoform P41594-3 limits assumed): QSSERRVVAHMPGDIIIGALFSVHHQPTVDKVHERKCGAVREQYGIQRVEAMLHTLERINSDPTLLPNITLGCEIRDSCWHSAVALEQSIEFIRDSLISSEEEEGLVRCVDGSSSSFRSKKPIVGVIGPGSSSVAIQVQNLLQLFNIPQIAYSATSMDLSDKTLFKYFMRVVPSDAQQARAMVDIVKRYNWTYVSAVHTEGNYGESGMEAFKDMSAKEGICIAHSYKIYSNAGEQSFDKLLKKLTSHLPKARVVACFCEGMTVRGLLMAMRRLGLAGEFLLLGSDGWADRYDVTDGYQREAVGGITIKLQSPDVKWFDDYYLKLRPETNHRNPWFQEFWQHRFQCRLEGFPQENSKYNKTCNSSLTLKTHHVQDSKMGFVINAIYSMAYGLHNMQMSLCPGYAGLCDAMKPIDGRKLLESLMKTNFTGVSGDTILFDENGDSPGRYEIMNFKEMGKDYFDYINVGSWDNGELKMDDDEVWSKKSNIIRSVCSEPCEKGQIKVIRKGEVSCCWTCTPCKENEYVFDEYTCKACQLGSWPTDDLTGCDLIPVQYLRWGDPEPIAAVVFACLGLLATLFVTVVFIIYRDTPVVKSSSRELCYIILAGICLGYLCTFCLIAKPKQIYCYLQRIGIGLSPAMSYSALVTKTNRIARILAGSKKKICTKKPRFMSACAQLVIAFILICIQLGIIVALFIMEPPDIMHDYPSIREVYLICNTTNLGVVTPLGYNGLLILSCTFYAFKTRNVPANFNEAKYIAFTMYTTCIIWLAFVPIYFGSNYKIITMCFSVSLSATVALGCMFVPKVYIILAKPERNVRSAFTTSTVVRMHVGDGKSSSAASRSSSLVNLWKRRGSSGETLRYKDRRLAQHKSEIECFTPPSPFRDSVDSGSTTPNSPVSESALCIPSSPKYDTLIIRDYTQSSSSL
- protocol-details: IP3 assay (phosphatidylinositol turnover, functional mGluR5 antagonism)
- Type: cell-based
- measurement-context: GHEK cells stably expressing human mGluR5d; glutamate (80 μM) or DHPG (30 μM) as agonist
quantity-kind: IC50 (nM)

Some entries whose results are on file:
Cc1cccc(-n2nnc([C@@H](C)Oc3nnc(-c4cccnc4)n3C)n2)c1 [Example 10.5] = 23
Cc1cccc(-n2nnc([C@@H](C)Oc3nnc(-c4ccnc(C)c4)n3C)n2)c1 [Example 10.4] = 20
Cc1cccc(-n2nnc([C@@H](C)Oc3nnc(-c4cnc(C)cn4)n3C)n2)c1 [Example 10.3] = 22

a = Cc1cccc(-n2nnc([C@@H](C)Oc3nnc(-c4cncnc4)n3C)n2)c1 [Example 10.2]
b = Cc1cccc(-n2nnc([C@@H](C)Oc3nnc(-c4ncccn4)n3C)n2)c1 [Example 10.1]
Endpoint returns whichever of a and b has the numerically higher IC50. Response format: the label of the selected entry.
b
(b: 36 nM, a: 25 nM)
